Values compiled from ChEMBL document CHEMBL1125888.

tested-target: 3-hydroxy-3-methylglutaryl-coenzyme A reductase (Rattus norvegicus, UniProt P51639)
Sequence (P51639 whole entry): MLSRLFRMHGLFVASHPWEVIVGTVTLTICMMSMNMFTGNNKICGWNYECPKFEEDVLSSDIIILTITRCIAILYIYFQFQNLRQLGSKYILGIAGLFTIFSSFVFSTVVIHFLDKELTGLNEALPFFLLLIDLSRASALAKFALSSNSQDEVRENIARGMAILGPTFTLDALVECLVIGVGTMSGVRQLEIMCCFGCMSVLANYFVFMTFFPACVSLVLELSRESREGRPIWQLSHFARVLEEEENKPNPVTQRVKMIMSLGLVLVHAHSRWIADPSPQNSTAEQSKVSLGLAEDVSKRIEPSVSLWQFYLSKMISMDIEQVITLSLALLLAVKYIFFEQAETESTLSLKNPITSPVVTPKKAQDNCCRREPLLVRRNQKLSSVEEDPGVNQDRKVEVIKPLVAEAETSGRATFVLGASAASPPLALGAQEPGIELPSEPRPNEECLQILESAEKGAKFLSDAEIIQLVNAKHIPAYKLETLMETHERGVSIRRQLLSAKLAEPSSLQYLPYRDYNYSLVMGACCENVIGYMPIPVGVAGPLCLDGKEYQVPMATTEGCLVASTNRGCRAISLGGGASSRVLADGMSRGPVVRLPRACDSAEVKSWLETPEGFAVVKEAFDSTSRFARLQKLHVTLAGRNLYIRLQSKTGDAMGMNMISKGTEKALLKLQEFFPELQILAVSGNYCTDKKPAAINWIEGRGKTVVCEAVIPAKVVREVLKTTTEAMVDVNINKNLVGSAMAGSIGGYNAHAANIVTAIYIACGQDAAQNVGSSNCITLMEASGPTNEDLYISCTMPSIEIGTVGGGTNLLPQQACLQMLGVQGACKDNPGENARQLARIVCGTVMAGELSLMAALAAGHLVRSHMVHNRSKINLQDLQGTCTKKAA
pIC50: −log10 of the molar value.
assay-endpoint: pIC50

Known pIC50 results, listed for orientation:
- CC(C)c1c(C(=O)Nc2ccccc2)c(-c2ccccc2)c(-c2ccc(F)cc2)n1CC[C@@H]1C[C@@H](O)CC(=O)O1 (stereo in doubt; (+)-33): 8.15
- CCOC(=O)c1c(-c2ccccc2)c(C(C)C)n(CC[C@@H]2C[C@@H](O)CC(=O)O2)c1-c1ccc(F)cc1: 7.30
- CCOC(=O)c1c(-c2ccccc2)c(-c2ccc(F)cc2)n(CC[C@@H]2C[C@@H](O)CC(=O)O2)c1C(C)C: 6.70
- CCOC(=O)c1c(C(=O)OCC)c(C(C)C)n(CC[C@@H]2C[C@@H](O)CC(=O)O2)c1-c1ccc(F)cc1: 6.46
- CCOC(=O)c1c(-c2ccc(C#N)cc2)c(-c2ccc(F)cc2)n(CC[C@@H]2C[C@@H](O)CC(=O)O2)c1C(C)C: 6.55
- CC(C)c1cc(-c2ccncc2)c(-c2ccc(F)cc2)n1CC[C@@H]1C[C@@H](O)CC(=O)O1: 6.51

(a) CC[C@H](C)C(=O)O[C@H]1CCC=C2C=C[C@H](C)[C@H](CC[C@@H]3C[C@@H](O)CC(=O)O3)[C@H]21
(b) CC(C)c1cc(-c2cccnc2)c(-c2ccc(F)cc2)n1CC[C@@H]1C[C@@H](O)CC(=O)O1
Between the entries labelled a and b , which has a larger pIC50 value on record? Returns: label corresponding to the selected item.
a
(a: 7.52, b: 7.15)
